Biological target: human mGluR3 (hmGluR3) (Homo sapiens, UniProt Q14832)
Sequence (Q14832 23-879): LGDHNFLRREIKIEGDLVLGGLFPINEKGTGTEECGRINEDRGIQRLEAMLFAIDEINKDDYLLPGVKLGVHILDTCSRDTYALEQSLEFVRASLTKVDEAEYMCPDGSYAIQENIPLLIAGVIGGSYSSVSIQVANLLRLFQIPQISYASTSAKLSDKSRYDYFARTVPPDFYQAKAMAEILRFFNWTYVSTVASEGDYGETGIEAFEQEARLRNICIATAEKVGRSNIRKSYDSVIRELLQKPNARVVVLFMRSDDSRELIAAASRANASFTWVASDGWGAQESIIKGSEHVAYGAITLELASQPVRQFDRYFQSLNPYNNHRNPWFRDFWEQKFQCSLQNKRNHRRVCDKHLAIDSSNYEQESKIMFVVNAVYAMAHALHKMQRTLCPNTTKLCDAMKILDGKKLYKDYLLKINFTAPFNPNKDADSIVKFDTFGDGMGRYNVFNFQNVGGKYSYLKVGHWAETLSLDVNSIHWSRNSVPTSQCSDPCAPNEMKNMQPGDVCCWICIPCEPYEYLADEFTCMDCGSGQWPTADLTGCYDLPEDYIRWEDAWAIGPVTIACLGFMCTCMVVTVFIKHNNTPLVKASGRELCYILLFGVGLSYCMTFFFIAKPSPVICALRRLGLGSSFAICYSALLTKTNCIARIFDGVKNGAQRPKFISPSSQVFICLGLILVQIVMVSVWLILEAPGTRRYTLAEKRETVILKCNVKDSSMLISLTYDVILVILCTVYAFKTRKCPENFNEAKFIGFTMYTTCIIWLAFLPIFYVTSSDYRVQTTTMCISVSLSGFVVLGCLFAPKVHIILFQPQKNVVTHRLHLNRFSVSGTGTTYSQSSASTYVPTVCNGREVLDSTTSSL
Assay: Human mGluR3 positive allosteric modulator evaluation using Ca++ functional assay
Conditions: hmGluR3 transiently over-expressed in HEK-293 cells; stimulated by EC50 glutamate concentration; intracellular Ca2+ (Fluo4AM, FLIPR Tetra)
Procedure: Compounds of the present invention were tested successively for their agonist and positive allosteric modulator activities on human mGluR3 (hmGluR3) transiently over-expressed in HEK-293 cells. […] Receptor activity was detected by changes in intracellular calcium measured using the fluorescent Ca^2+ sensitive dye, Fluo4AM (Molecular Probes). […] Agonist and positive allosteric modulator activities of compounds were consecutively evaluated on the same cells plate. […]
pEC50: −log10 of the molar value.
What pEC50 was measured for each of the following?

CCN1Cc2ccc(-c3cccnc3C)cc2-n2cc(-c3ccccc3)nc2C1=O = < 6.00
CN1C(=O)c2cccn2-c2cc(-c3cccnc3F)ccc2C12CC2 = 6.00 to 7.00
Cc1ccc(-c2ccc3c(c2)-n2cc(-c4ccccc4)cc2C(=O)N(C)C32CC2)cn1 = > 7.00
CN1C(=O)c2cc(-c3ccccc3)nn2-c2cc(-c3ccc(N)nc3)ccc2C12CC2 = > 7.00

// for each compound in input: emit pEC50
1. [2H]C([2H])([2H])N1C(=O)c2cccn2-c2cc(-c3ccc(F)cn3)ccc2C12CC2
2. Cc1ccc(-c2ccc3c(c2)-n2cc(CO)cc2C(=O)N(C)C32CC2)cn1
3. Cc1ncccc1-c1ccc2c(c1)-n1ccnc1C(=O)N(C)C2
4. Cc1ccc(-c2ccc3c(c2)-n2cccc2C(=O)N(C)C32CC2)cn1

A:
1. > 7.00
2. > 7.00
3. < 6.00
4. > 7.00
